tested-on: Integrin alpha-IIb/beta-3 (Homo sapiens, UniProt P05106+P08514)
Sequence (P05106 27-788 limits assumed): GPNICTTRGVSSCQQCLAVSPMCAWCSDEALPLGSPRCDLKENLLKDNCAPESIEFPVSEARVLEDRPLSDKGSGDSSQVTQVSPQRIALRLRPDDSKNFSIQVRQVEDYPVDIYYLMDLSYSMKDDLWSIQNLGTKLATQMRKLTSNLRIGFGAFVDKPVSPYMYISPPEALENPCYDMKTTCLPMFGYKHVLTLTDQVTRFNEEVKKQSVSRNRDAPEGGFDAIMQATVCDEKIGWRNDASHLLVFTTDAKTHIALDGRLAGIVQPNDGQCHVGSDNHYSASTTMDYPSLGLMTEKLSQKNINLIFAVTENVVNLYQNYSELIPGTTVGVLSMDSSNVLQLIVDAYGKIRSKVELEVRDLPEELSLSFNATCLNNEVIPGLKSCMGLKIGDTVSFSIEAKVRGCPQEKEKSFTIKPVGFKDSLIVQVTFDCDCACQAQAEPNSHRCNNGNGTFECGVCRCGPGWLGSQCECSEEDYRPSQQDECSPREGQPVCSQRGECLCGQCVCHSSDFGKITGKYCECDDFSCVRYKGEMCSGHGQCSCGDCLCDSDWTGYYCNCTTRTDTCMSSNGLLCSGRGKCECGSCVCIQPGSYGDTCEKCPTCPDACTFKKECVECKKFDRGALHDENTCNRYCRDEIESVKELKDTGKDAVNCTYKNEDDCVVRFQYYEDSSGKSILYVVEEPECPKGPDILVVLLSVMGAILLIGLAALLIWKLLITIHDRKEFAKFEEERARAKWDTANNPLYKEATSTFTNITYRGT
Sequence (P08514 32-887 limits assumed): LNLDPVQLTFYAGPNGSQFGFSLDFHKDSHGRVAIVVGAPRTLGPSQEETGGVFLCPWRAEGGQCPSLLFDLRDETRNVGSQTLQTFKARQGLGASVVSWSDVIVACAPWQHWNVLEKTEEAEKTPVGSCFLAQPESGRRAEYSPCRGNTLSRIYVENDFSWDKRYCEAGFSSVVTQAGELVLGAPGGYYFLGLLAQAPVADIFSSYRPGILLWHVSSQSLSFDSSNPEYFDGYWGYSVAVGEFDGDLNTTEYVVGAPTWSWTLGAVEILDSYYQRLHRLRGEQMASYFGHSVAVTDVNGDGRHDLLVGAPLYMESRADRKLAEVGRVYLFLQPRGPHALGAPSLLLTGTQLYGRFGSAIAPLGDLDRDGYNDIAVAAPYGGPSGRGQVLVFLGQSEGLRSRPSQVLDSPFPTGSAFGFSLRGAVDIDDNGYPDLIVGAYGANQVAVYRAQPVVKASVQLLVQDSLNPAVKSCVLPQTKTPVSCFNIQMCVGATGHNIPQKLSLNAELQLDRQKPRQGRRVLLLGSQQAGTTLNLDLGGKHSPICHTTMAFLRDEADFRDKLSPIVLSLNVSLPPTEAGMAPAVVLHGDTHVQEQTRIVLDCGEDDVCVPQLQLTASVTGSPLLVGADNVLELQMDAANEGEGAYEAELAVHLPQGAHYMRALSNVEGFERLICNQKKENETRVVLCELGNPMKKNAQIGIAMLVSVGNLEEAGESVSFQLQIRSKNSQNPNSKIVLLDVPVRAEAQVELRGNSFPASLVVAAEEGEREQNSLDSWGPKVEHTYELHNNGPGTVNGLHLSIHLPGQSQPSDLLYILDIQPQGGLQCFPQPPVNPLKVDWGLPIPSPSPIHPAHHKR
Sequence (P08514 891-1039 limits assumed): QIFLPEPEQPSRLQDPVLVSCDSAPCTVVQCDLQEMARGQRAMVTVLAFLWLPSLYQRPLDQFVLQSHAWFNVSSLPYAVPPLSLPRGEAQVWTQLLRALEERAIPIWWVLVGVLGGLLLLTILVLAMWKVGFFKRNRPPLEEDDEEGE
experimental-details: Inhibition of radiolabeled fibrinogen binding to activated human platelets.
Type: functional
Criterion: IC50 strictly under 20 nM. Met: 1. Not met: -1.

Does this compound meet the criterion IC50 < 20 nM? CCN(CC(=O)N[C@@H](CC(=O)O)C(=O)N[C@@H](Cc1cccc2ccccc12)C(=O)O)C(=O)CCCC1CCNCC1 -1

Does this compound meet the criterion IC50 < 20 nM? CCN(CC(=O)N[C@@H](CC(=O)O)C(=O)N[C@@H](CCC1CCCCC1)C(=O)O)C(=O)CCCC1CCNCC1 1

Does this compound meet the criterion IC50 < 20 nM? CCN(CC(=O)N[C@@H](CC(=O)O)C(=O)N[C@@H](CC1CCCCC1)C(N)=O)C(=O)CCCC1CCNCC1 -1

Does this compound meet the criterion IC50 < 20 nM? CCN(CC(=O)N[C@@H](CC(=O)O)C(=O)NCCC1CCCCC1)C(=O)CCCC1CCNCC1 1

Does this compound meet the criterion IC50 < 20 nM? CCN(CC(=O)N[C@@H](CC(=O)O)C(=O)N[C@@H](Cc1ccc2ccccc2c1)C(=O)O)C(=O)CCCC1CCNCC1 -1

Does this compound meet the criterion IC50 < 20 nM? CCN(CC(=O)N[C@@H](CC(=O)O)C(=O)N[C@@H](CC1CCCCC1)C(=O)O)C(=O)CCCC1CCNCC1 1
